# assayed system: furin, P09958;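 further: purified furin at 1:10 enzyme:substrate in 50 mM HEPES pH 7.5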
# Sequence (P09958 whole entry): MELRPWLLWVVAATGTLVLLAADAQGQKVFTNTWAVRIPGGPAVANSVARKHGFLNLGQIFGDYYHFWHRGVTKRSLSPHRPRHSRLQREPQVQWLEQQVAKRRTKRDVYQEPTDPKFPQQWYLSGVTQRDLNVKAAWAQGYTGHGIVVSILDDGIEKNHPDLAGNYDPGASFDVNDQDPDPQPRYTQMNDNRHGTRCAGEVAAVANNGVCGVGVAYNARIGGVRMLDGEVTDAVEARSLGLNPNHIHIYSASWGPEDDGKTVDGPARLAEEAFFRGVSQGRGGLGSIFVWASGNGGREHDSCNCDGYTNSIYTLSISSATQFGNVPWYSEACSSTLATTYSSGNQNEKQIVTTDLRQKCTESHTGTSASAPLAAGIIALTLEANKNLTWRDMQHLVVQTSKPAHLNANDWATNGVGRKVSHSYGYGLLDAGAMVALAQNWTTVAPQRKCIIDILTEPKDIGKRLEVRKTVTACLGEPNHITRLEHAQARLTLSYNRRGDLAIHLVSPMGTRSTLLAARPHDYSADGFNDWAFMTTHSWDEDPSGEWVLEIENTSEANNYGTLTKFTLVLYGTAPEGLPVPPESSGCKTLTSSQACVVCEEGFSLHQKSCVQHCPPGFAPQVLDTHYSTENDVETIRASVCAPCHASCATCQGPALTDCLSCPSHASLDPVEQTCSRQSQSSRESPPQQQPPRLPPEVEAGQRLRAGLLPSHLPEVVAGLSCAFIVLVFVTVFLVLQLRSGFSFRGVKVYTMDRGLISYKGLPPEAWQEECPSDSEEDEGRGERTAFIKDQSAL
# experiment summary: furin cleavage Z-score vs untreated control; higher = more cleavage, active = 3.5 or more, inactive = 1 or less, 8 variable residues between constant flanks
# experimental conditions: 30 min
The other results are listed elsewhere or left out. The true hit rate is not given.
measured endpoint: furin cleavage Z-score
// print number alone

The examples below pair each entry with its known result.
| construct sequence | val |
| --- | --- |
| CAVVCCSMSMAGNASASA [HC2086] | 0.14 |
| CAVVGTTDRSAGNASASA [HC418] | 0.404 |

Lab book: furin cleavage Z-score of CAFVPCHRPSAGNASASA [HC2307] noted as 0.113

Entry under test: CACLLLLAAGAGNASASA [HC1658] . Its furin cleavage Z-score was -0.912

For reference, reported furin cleavage Z-score for CAMEECSYHLAGNASASA [HC1729] stands at -0.509

Per the record, CAGDVVCCSMAGNASASA [HC2116] has furin cleavage Z-score of -0.011

Input CAAVGRRVRSAGNASASA [FS-12] . Output furin cleavage Z-score: 7.92
